Assayed system: muscarinic receptor (rat brain)
Construct: native receptors in particulate (40 000 g pellet) preparation of whole brain without cerebellum; subtype mixture not resolved
Assay text: [3H]NMS displacement, rat brain membranes, filtration
Particulars: [3H]NMS 0.3 nM (0.5 nM in data analysis), 30 mM Na+/HEPES pH 7.5, 25 °C, 60 min; competitive
From the text: [3H]NMS displacement, rat brain membranes, filtration on muscarinic receptor (rat brain)
pIC50: −log10 of the molar value.
pIC50 vs 7: at or above is Met, below is Not met.

O=C(Nc1ccc(C[C@@H]2CC[C@H]([C@H](O)c3ccccc3)N2)cc1)[C@@H]1CCc2nccc(=O)n21 :: Not met

Confirm if pIC50 reported for the compound Cc1c(-c2ccccc2)oc2c(C(=O)OCCN3CCCCC3)cccc2c1=O [Flavoxate] is 7 or above. Not met

Confirm if pIC50 reported for the compound Nc1nc(CC(=O)Nc2ccc(CCNC[C@H](O)c3ccccc3)cc2)cs1 is 7 or above. Not met

The reported measurements were obtained from paper PMC11503540.
